System: SR
Experiment: NCI tumour cell line growth inhibition, 48 h
Calls of active or inactive are those of the source. No stated cut-off is given here; in the data, active = GI50 up to about 1.1 µM and inactive = higher.
Valid outcomes are listed here; reply with one: active, inactive

Worked set:
compound=CN(C)C(=S)/N=c1\ssc(=S)n1C1CCCCC1 labelclass=inactive
compound=O=C(/C=C/c1cccs1)c1ccsc1 labelclass=inactive
compound="O=C(CC(C(=O)c1ccco1)c1ccco1)c1ccco1 (stereo not given)" labelclass=inactive
compound=CCOc1ccc(NC(=O)CC#N)cc1 labelclass=inactive
compound="C[C@@H]1OCC(O)C([C@H]2OC(c3ccccc3)=N[C@H]2CO)O1 (stereo not given in full)" labelclass=inactive
compound=Fc1cccc(Cl)c1/C=N\N=C1c2ccccc2-c2ccccc21 labelclass=inactive

What call does the record list for "CC(C)=CCc1[nH]c2ccccc2c1C1=C(O)C(=O)C(c2c(CC=C(C)C)[nH]c3ccccc23)=C(O)C1=O" ?
inactive

What call does the record list for "O=C(/C=C/c1ccc(OCc2ccccc2)cc1)NCc1ccc(C(=O)NCCc2c[nH]c3ccccc23)cc1" ?
inactive

What call does the record list for CC1(C)C2CCC1C(=O)C(C=O)C2 (stereo not given) ?
inactive

What call does the record list for CSC12c3cc(C)n(-c4ccc(I)cc4)c3CC(C)(C)CN1C(=O)C2Oc1ccccc1 (stereo not given) ?
inactive

* * *

System: COLO 205
Assay: NCI tumour cell line growth inhibition, 48 h
The source made the active and inactive calls. Rule as the data show it: active = GI50 up to about 1.1 µM and inactive = higher.
Exercise: for every item that follows, state its recorded GI50.

# example entries with known answers
compound="C[C@H]1CC[P+](Cc2ccccc2)(c2ccccc2)C1 (stereo not given in full)" endpointlabel=GI50 valuereported="38 µM (inactive)"
compound=Cc1cc2c(=O)c3ccccc3oc2c(C#N)c1C endpointlabel=GI50 valuereported="> 100 µM (inactive)"
compound="O=CC12c3ccccc3C(c3ccccc31)C1C(=O)NC(=O)C12 (stereo not given)" endpointlabel=GI50 valuereported="> 100 µM (inactive)"
compound=CON(C)c1nc(N(C)OC)nc(N(C)OC)n1 endpointlabel=GI50 valuereported="> 10 µM (inactive)"
compound=CN1C(=O)[C@@H]2N(CSC2(C)C)C1=S endpointlabel=GI50 valuereported="> 100 µM (inactive)"

Can you give me GI50 for all of these, one by one?
1. Oc1c(C2=NNC(c3cccs3)C2)ccc2ccccc12 (stereo not given)
2. O=C(OC[C@H]1C[C@H]2C(=O)CCC[C@H]2O1)c1ccccc1
3. COc1ccc2cc3[n+](cc2c1OC)CCc1cc(O)c(O)cc1-3
4. NC(CCc1nc(-c2ccccc2)cs1)C(=O)O (stereo not given)
5. O=P(O)(O)c1ccc2c(c1)OCCOCCOCCOCCO2
6. COC(=O)C(CCCCN)NC(C)=O.Cc1ccc(C(=O)Nc2ccc(S(=O)(=O)O)c3cc(S(=O)(=O)O)cc(S(=O)(=O)O)c23)cc1NC(=O)c1cccc(NC(=O)Nc2cccc(C(=O)Nc3cc(C(=O)Nc4ccc(S(=O)(=O)O)c5cc(S(=O)(=O)O)cc(S(=O)(=O)O)c45)ccc3C)c2)c1

1. 19.5 µM (inactive)
2. > 100 µM (inactive)
3. > 100 µM (inactive)
4. > 100 µM (inactive)
5. > 100 µM (inactive)
6. > 50 µM (inactive)

Can you give me GI50 for all of these, one by one?
1. Nn1c(-c2cccc(Cl)c2)nc2ccccc2c1=O
2. COC(=O)c1cc(NC(=O)Cc2c[nH]c3ccccc23)cn1C
3. Cc1nc2ccccc2c(=O)n1NC(=O)c1ccccc1O
4. CC(C)=CCOc1ccc(-c2coc3cc4c(c(O)c3c2=O)C=CC(C)(C)O4)cc1
5. COc1cccc2c1OC(c1ccc(Cl)cc1)C([N+](=O)[O-])=C2 (stereo not given)
6. CC(=O)Oc1c2c(c3n(c1=O)CCCC3)C(=O)N(c1ccccc1)C2=O
7. CC1CC(=O)Nc2ccc(/N=N/N(C)C)cc2N1C=O (stereo not given)

1. > 100 µM (inactive)
2. 82 µM (inactive)
3. > 100 µM (inactive)
4. > 100 µM (inactive)
5. 2.19 µM (inactive)
6. > 100 µM (inactive)
7. > 100 µM (inactive)

Can you give me GI50 for all of these, one by one?
1. O=C(NCCCCCCNC(=O)OCCSCCn1cc(C(=O)NC(=O)OCc2ccccc2)c(=O)[nH]c1=O)OCCSCCn1cc(C(=O)NC(=O)OCc2ccccc2)c(=O)[nH]c1=O
2. OCCCCCCCCCCCOc1ccc(C2OCC3(CO2)COC(c2ccc(OCCCCCCCCCCCO)cc2)OC3)cc1 (stereo not given)

> 100 µM (inactive)
> 50 µM (inactive)
